src = ChEMBL document CHEMBL5303573

assayProcedure: The drug is tested on Bacteroides dorei strain: DSM17855 for biotransformation. The drug concentrations were measured before and after a 12-h incubation by liquid-chromatography-coupled mass spectrometry (LC–MS)
conditions: phocaeicola dorei, 2 µM
testReadout: Bacterial Biotransformation

molecule	testReadout	testValue
CCN(CC)CCNC(=O)c1cc(Cl)c(N)cc1OC [METOCLOPRAMIDE]	Bacterial Biotransformation	Compound NOT metabolized
CCCCC(=O)N(Cc1ccc(-c2ccccc2-c2nnn[nH]2)cc1)[C@H](C(=O)O)C(C)C	Bacterial Biotransformation	Compound NOT metabolized
CCC(=O)NCC[C@@H]1CCc2ccc3c(c21)CCO3 [RAMELTEON]	Bacterial Biotransformation	Compound metabolized
CC(=O)CCCCn1c(=O)c2c(ncn2C)n(C)c1=O [PENTOXIFYLLINE]	Bacterial Biotransformation	Compound NOT metabolized
COc1cc2nc(N(C)CCCNC(=O)C3CCCO3)nc(N)c2cc1OC (centres undefined) [ALFUZOSIN]	Bacterial Biotransformation	Compound metabolized
OC(Cn1cncn1)(Cn1cncn1)c1ccc(F)cc1F [FLUCONAZOLE]	Bacterial Biotransformation	Compound metabolized
CCC(C)n1ncn(-c2ccc(N3CCN(c4ccc(OCC5COC(Cn6cncn6)(c6ccc(Cl)cc6Cl)O5)cc4)CC3)cc2)c1=O (centres undefined) [ITRACONAZOLE]	Bacterial Biotransformation	Compound NOT metabolized
COC1=CC(=O)C[C@@H](C)[C@]12Oc1c(Cl)c(OC)cc(OC)c1C2=O [GRISEOFULVIN]	Bacterial Biotransformation	Compound metabolized
CC(CCc1ccccc1)NCC(O)c1ccc(O)c(C(N)=O)c1 (centres undefined) [LABETALOL]	Bacterial Biotransformation	Compound NOT metabolized
